- protocol: amyloid nucleation score (Sup35N fusion, yeast selection) (log enrichment); library NNK3; higher = more nucleation; inactive = no reads after selection;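 further: zero at mode of non-aggregating sequences after 7 days selection at 30°C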
property name: amyloid nucleation score

Some substances with recorded amyloid nucleation score:
substance	amyloid nucleation score
YPYCKKGWCDMKTKGRSKEG	inactive
QRSTKPW	-0.586
QSASFRNGFKLLLMTS	inactive
MVWKHYTSLNRDCVFNICCW	1.78
FYYYDLYYGRVFRDSPYSMS	inactive
LHVPGLIYF	inactive
SRRSMHRVVSHVREGS	-0.164
ANSWSMLHVECFYML	2.44

Next up:
Input line: Report measured amyloid nucleation score; entry is `LYFNWWTRGTAMLYGI`
Output line: inactive

====

- protocol: amyloid nucleation score (Sup35N fusion, yeast selection) (log enrichment); library NNK1; higher = more nucleation; inactive = no reads after selection
Classify by measured amyloid nucleation score: 1.0 if it is equal to or exceeds -0.1, 0.0 if it is smaller.

substance	discrete label
ADGWFQFWRGKYFGGRFQFT	0.0
INLLVPFQNESVLELNATEW	1.0
MTGQTCRFEGSFRFMERCRK	1.0

Input line: Quick check: does `SLSMSRIQMHNRYKPGTQFD` have amyloid nucleation score greater than or equal to -0.1?
Output line: 1.0

Input line: Quick check: does `WRHATSEMCFEGMLKCKVVT` have amyloid nucleation score greater than or equal to -0.1?
Output line: 1.0

Input line: Quick check: does `GVGSSFSTSKAYWVGYECIT` have amyloid nucleation score greater than or equal to -0.1?
Output line: 0.0

Input line: Quick check: does `ESSLLLLDLGELRCYTFCLV` have amyloid nucleation score greater than or equal to -0.1?
Output line: 0.0

Input line: Quick check: does `YCTLFGSWPLIVVVGG` have amyloid nucleation score greater than or equal to -0.1?
Output line: 0.0

Input line: Quick check: does `GFNKSSSGFVSSNGDIDYWD` have amyloid nucleation score greater than or equal to -0.1?
Output line: 0.0

Input line: Quick check: does `PILCGTSLSQINDYYGV` have amyloid nucleation score greater than or equal to -0.1?
Output line: 0.0

Input line: Quick check: does `FYITQTEGQLLLCR` have amyloid nucleation score greater than or equal to -0.1?
Output line: 0.0

Input line: Quick check: does `QSADLMNSMTLICGWSVQIA` have amyloid nucleation score greater than or equal to -0.1?
Output line: 1.0

Input line: Quick check: does `IFLPYI` have amyloid nucleation score greater than or equal to -0.1?
Output line: 0.0

Input line: Quick check: does `LGRGSAVSSPWVIIRIVNML` have amyloid nucleation score greater than or equal to -0.1?
Output line: 1.0

Input line: Quick check: does `INTFARRAVVSSLSWSLACH` have amyloid nucleation score greater than or equal to -0.1?
Output line: 1.0

Input line: Quick check: does `DFECILLGCFGLDLPVTGIR` have amyloid nucleation score greater than or equal to -0.1?
Output line: 1.0

Input line: Quick check: does `RSGVVIVVLSVYGSSQRARG` have amyloid nucleation score greater than or equal to -0.1?
Output line: 0.0

Input line: Quick check: does `VQKKRLDGLVKRGLYIRAIG` have amyloid nucleation score greater than or equal to -0.1?
Output line: 1.0

====

- protocol: amyloid nucleation score (Sup35N fusion, yeast selection) (log enrichment); library NNK3; higher = more nucleation; inactive = no reads after selection
property name: amyloid nucleation score
Keep the answer to the number alone.

biosequence	property name	observed measurement
AQFGQTWFANFTSVFYCWSE	amyloid nucleation score	2.06

Input line: Report measured amyloid nucleation score; entry is `PRIWLVAFQTKTCYPSGGWL`
Output line: -1.47

Input line: Report measured amyloid nucleation score; entry is `MVLNERFFYTSTTGVICVTC`
Output line: 1.73
